# experimentalParameters: human, plasma, 5 h
quantityMeasured: PPB (%)
Please state the figure in %; there is no need to write the unit.

The recorded PPB for N#Cc1cc(-c2n[nH]c(-c3ccncc3)n2)ccn1 [TOPIROXOSTAT] is 84.9

The recorded PPB for COc1ccc([C@@H]2Sc3ccccc3N(CCN(C)C)C(=O)[C@@H]2OC(C)=O)cc1.Cl [DILTIAZEM HYDROCHLORIDE] is 35.46

The recorded PPB for Cc1ccc(C(=O)N(CCCN)[C@@H](c2nc3cc(Cl)ccc3c(=O)n2Cc2ccccc2)C(C)C)cc1 [ISPINESIB] is 99.4

The recorded PPB for Cc1ccc(-c2cc(C(F)(F)F)nn2-c2ccc(S(N)(=O)=O)cc2)cc1 [CELECOXIB] is 98.94

The recorded PPB for O=C(Nc1c(Cl)cncc1Cl)c1ccc(OC(F)F)c(OCC2CC2)c1 [ROFLUMILAST] is 99.5

The recorded PPB for Cc1ccc(S(=O)(=O)Nc2c(C(=O)N[C@@H](C)C(C)(C)C)c(C)nn2-c2ccccc2)cc1 is 98.89

The recorded PPB for COc1ccc([C@@H]2Sc3ccccc3N(CCN(C)C)C(=O)[C@@H]2OC(C)=O)cc1 [DILTIAZEM] is 75.97

The recorded PPB for O=C(NCCc1ccccc1Cl)c1cc(-n2ncc(=O)[nH]c2=O)ccc1Cl is 97.2

The recorded PPB for Oc1nc(-c2ccc(C(F)(F)F)cc2)nc2c1CSCC2 is 97.6
